target or system: Luciferin 4-monooxygenase (Photinus pyralis)
test summary: firefly luciferase enzyme inhibitors, primary screen, biochemical, luminescence, purified enzyme, 2006 set (AID 1141);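 further: cell-free assay with purified firefly luciferase at 100 ng per well in PBS; test concentration not given here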
condition info: SteadyGlo luminescence, 30 min, higher = more signal, called active from +8 up or from −8 down
The entries below are paired with their reported z-score.

- molecular string: "C=C(C(=O)CC[C@@H](OC(=O)c1cccnc1)c1cccc(OCCO)c1)C(C)C"
  z-score: -0.128
- molecular string: "CCOC(=O)C[C@H]1[C@H](OC(=O)c2cc3ccccc3oc2=O)[C@@H](NC(=O)c2ccc(-c3ccccc3)cc2)c2cc(OCCCO)ccc2N1C(=O)Cc1ccc(OC)cc1"
  z-score: 0.853
- molecular string: "C=CCNC(=O)[C@H]1[C@@H]2C(=O)O[C@@H](c3ccccc3)[C@@H](c3ccccc3)N2[C@@H](c2ccc(OCCO)cc2)[C@]12C(=O)Nc1ccc(C#Cc3ccc(OC)cc3)cc12"
  z-score: 0.152

The reported measurements were obtained from PubChem BioAssay.
